test_system: Cathepsin B (Homo sapiens)
test_method_notes: Inhibition of cathepsinB
Activity calls are given as the source filed them. No cut-off for these calls is given here.
experimental_readout: Activity

Examples from the recorded data:
{"compound": "CC(C)C[C@H](NC(=O)[C@@H](NC(=O)COc1ccc2c(c1)Nc1ccccc1S2)[C@H](C)O)C(=O)N[C@H]1CCOC1O (some centres not stated)", "Activity": "Active"}
{"compound": "CC(C)C[C@H](NC(=O)[C@H](C)NC(=O)COc1ccc2c(c1)Nc1ccccc1S2)C(=O)N[C@H]1CCOC1O (some centres not stated)", "Activity": "Active"}
{"compound": "CC(C)C[C@H](NC(=O)[C@@H](NC(=O)COc1ccc2c(c1)Nc1ccccc1S2)C(C)(C)C)C(=O)N[C@H]1CCOC1O (some centres not stated)", "Activity": "Active"}
{"compound": "CC(C)C[C@H](NC(=O)COc1ccc2c(c1)Nc1ccccc1S2)C(=O)N[C@@H](CC(C)C)C(=O)N[C@H]1CCOC1O (stereo in doubt; 6d-08)", "Activity": "Active"}
{"compound": "CC[C@H](NC(=O)COc1ccc2c(c1)Nc1ccccc1S2)C(=O)N[C@@H](CC(C)C)C(=O)N[C@H]1CCOC1O (some centres not stated)", "Activity": "Active"}

Ask | Give Cathepsin B (Homo sapiens) Activity for CC(C)C[C@H](NC(=O)[C@H](CO)NC(=O)COc1ccc2c(c1)Nc1ccccc1S2)C(=O)N[C@H]1CCOC1O (some centres not stated)
Reply | Active

Ask | Next compound: CC(C)C[C@H](NC(=O)C(C)(C)NC(=O)COc1ccc2c(c1)Nc1ccccc1S2)C(=O)N[C@H]1CCOC1O (some centres not stated)
Reply | Active

Ask | Also check CCC[C@H](NC(=O)COc1ccc2c(c1)Nc1ccccc1S2)C(=O)N[C@@H](CC(C)C)C(=O)N[C@H]1CCOC1O (some centres not stated)
Reply | Active

Ask | Another compound to look at: CC(C)C[C@H](NC(=O)[C@@H](NC(=O)COc1ccc2c(c1)Nc1ccccc1S2)C(C)C)C(=O)N[C@H]1CCOC1O (some centres not stated)
Reply | Active

Ask | Field entry: CC(C)C[C@H](NC(=O)CNC(=O)COc1ccc2c(c1)Nc1ccccc1S2)C(=O)N[C@H]1CCOC1O (some centres not stated)
Reply | Active

Ask | Entry CC(C)C[C@H](NC(=O)[C@H](NC(=O)COc1ccc2c(c1)Nc1ccccc1S2)C(C)C)C(=O)N[C@H]1CCOC1O (some centres not stated) please
Reply | Active

Ask | Next: CC(C)C[C@H](NC(=O)[C@@H](NC(=O)COc1ccc2c(c1)Nc1ccccc1S2)c1ccccc1)C(=O)N[C@H]1CCOC1O (some centres not stated)
Reply | Active

====

test_system: Calpain 1 (Homo sapiens, UniProt P07384)
Sequence (P04632 whole entry): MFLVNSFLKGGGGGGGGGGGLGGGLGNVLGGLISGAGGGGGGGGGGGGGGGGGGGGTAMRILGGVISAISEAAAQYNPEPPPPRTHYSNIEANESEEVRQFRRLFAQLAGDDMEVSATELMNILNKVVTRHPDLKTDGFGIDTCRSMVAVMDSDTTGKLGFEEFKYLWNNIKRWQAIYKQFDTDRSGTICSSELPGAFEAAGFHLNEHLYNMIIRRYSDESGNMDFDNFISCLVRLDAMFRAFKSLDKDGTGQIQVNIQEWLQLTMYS
Sequence (P07384 whole entry): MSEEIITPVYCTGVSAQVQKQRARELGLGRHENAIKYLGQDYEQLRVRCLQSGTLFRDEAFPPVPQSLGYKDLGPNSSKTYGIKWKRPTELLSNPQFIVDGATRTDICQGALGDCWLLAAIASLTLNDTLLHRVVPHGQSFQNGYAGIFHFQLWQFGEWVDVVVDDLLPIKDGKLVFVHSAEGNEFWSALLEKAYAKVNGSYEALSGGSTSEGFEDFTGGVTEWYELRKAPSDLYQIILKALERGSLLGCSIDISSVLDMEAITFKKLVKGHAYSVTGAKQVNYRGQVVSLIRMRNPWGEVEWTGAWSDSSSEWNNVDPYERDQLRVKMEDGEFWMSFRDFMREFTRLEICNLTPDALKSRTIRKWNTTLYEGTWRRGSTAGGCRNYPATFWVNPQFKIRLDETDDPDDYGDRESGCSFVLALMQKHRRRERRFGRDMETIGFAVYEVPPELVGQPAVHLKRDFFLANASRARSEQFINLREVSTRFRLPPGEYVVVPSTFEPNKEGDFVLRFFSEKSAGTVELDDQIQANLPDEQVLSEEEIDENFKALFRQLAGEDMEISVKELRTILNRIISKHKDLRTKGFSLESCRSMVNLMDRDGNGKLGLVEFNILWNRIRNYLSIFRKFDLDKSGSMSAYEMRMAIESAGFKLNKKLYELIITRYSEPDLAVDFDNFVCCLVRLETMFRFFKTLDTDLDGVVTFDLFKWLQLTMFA
test_method_notes: Inhibition of isolated human calpain1
experimental_readout: pIC50
Convention used: pIC50 is expressed as -log10 of the molar concentration.

Some solved entries appear below for comparison.
{"molecule": "CC(C)C[C@H](NC(=O)[C@@H](NC(=O)COc1ccc2c(c1)Nc1ccccc1S2)C(C)(C)C)C(=O)N[C@H]1CCOC1O (some centres not stated)", "observed_measurement": 6.45}
{"molecule": "CCC[C@H](NC(=O)COc1ccc2c(c1)Nc1ccccc1S2)C(=O)N[C@@H](CC(C)C)C(=O)N[C@H]1CCOC1O (some centres not stated)", "observed_measurement": 6.82}
{"molecule": "CC(C)C[C@H](NC(=O)CNC(=O)COc1ccc2c(c1)Nc1ccccc1S2)C(=O)N[C@H]1CCOC1O (some centres not stated)", "observed_measurement": 8.10}

Ask | Record lookup: for Calpain 1 (Homo sapiens, UniProt P07384), what pIC50 belongs to CC[C@H](NC(=O)COc1ccc2c(c1)Nc1ccccc1S2)C(=O)N[C@@H](CC(C)C)C(=O)N[C@H]1CCOC1O (some centres not stated) ?
Reply | 7.05

Ask | And then CC(C)C[C@H](NC(=O)[C@H](C)NC(=O)COc1ccc2c(c1)Nc1ccccc1S2)C(=O)N[C@H]1CCOC1O (some centres not stated) , what is it?
Reply | 7.60

Ask | And for CC(C)C[C@H](NC(=O)[C@H](NC(=O)COc1ccc2c(c1)Nc1ccccc1S2)C(C)C)C(=O)N[C@H]1CCOC1O (some centres not stated) ?
Reply | 6.26

Ask | Same thing, different molecule: CC(C)C[C@H](NC(=O)C(C)(C)NC(=O)COc1ccc2c(c1)Nc1ccccc1S2)C(=O)N[C@H]1CCOC1O (some centres not stated)
Reply | 6.86

====

test_system: Calpain 1 (Homo sapiens, UniProt P07384)
test_method_notes: Inhibition of isolated human calpain1
Format: protein-complex assay
experimental_readout: pIC50
// pIC50 is dimensionless: -log10 of concentration (M)

{"molecule": "CC(C)C[C@H](NC(=O)[C@@H](NC(=O)COc1ccc2c(c1)Nc1ccccc1S2)[C@H](C)O)C(=O)N[C@H]1CCOC1O (some centres undefined)", "pIC50": 7.42}
{"molecule": "CC(C)C[C@H](NC(=O)[C@@H](NC(=O)COc1ccc2c(c1)Nc1ccccc1S2)c1ccccc1)C(=O)N[C@H]1CCOC1O (some centres undefined)", "pIC50": 6.65}
{"molecule": "CC(C)C[C@H](NC(=O)[C@@H](NC(=O)COc1ccc2c(c1)Nc1ccccc1S2)C(C)C)C(=O)N[C@H]1CCOC1O (some centres undefined)", "pIC50": 7.12}
{"molecule": "CC(=O)OC1OCC[C@@H]1NC(=O)[C@H](CC(C)C)NC(=O)[C@H](CC(C)C)NC(=O)c1ccc2c(c1)Nc1ccccc1S2 (some centres undefined)", "pIC50": 6.04}
{"molecule": "CC(C)C[C@H](NC(=O)Cc1ccc2c(c1)Nc1ccccc1S2)C(=O)N[C@@H](CC(C)C)C(=O)N[C@H]1CCOC1O (some centres undefined)", "pIC50": 7.26}
{"molecule": "CC(C)C[C@H](NC(=O)COc1ccc2c(c1)Nc1ccccc1S2)C(=O)N[C@@H](CC(C)C)C(=O)N[C@H]1CCOC1O (stereo in doubt; 6d-08)", "pIC50": 6.98}

Ask | Using the record for CC(C)C[C@H](NC(=O)CCc1ccc2c(c1)Nc1ccccc1S2)C(=O)N[C@@H](CC(C)C)C(=O)N[C@H]1CCOC1O (some centres undefined) , report its pIC50.
Reply | 6.82

Ask | Moving on to CC(C)C[C@H](NC(=O)c1ccc2c(c1)Nc1ccccc1S2)C(=O)N[C@@H](CC(C)C)C(=O)N[C@H]1CCOC1O (some centres undefined)
Reply | 7.07

Ask | Here is the next molecule: CC(C)C[C@H](NC(=O)[C@H](CO)NC(=O)COc1ccc2c(c1)Nc1ccccc1S2)C(=O)N[C@H]1CCOC1O (some centres undefined)
Reply | 7.31

====

test_method_notes: Ratio of pIC50 (rat calpain/human calpain 1)
Listing of entries alongside the reported Negative log of IC50 ratio (cellular/enzyme).
// return just the number, without any unit appended

Solved entries (count: 3):
{"molecule": "CC(C)C[C@H](NC(=O)[C@H](NC(=O)COc1ccc2c(c1)Nc1ccccc1S2)C(C)C)C(=O)N[C@H]1CCOC1O (some centres not stated)", "observed_measurement": 1.54}
{"molecule": "CC(C)C[C@H](NC(=O)CNC(=O)COc1ccc2c(c1)Nc1ccccc1S2)C(=O)N[C@H]1CCOC1O (some centres not stated)", "observed_measurement": -0.9}
{"molecule": "CC(C)C[C@H](NC(=O)C(C)(C)NC(=O)COc1ccc2c(c1)Nc1ccccc1S2)C(=O)N[C@H]1CCOC1O (some centres not stated)", "observed_measurement": 0.66}

Ask | Entry CC(C)C[C@H](NC(=O)[C@H](CO)NC(=O)COc1ccc2c(c1)Nc1ccccc1S2)C(=O)N[C@H]1CCOC1O (some centres not stated) : reported Negative log of IC50 ratio (cellular/enzyme) = ?
Reply | 1.21

Ask | Can you check CC(C)C[C@H](NC(=O)[C@@H](NC(=O)COc1ccc2c(c1)Nc1ccccc1S2)C(C)(C)C)C(=O)N[C@H]1CCOC1O (some centres not stated) next?
Reply | 1.95

Ask | Similarly, CCC[C@H](NC(=O)COc1ccc2c(c1)Nc1ccccc1S2)C(=O)N[C@@H](CC(C)C)C(=O)N[C@H]1CCOC1O (some centres not stated) ?
Reply | 2.4

Ask | Another molecule: CC(C)C[C@H](NC(=O)[C@@H](NC(=O)COc1ccc2c(c1)Nc1ccccc1S2)c1ccccc1)C(=O)N[C@H]1CCOC1O (some centres not stated)
Reply | 1.65

Ask | Then what about the molecule CC(C)C[C@H](NC(=O)[C@@H](NC(=O)COc1ccc2c(c1)Nc1ccccc1S2)C(C)C)C(=O)N[C@H]1CCOC1O (some centres not stated) ?
Reply | 1.88

Ask | Input CC(C)C[C@H](NC(=O)[C@H](C)NC(=O)COc1ccc2c(c1)Nc1ccccc1S2)C(=O)N[C@H]1CCOC1O (some centres not stated)
Reply | 0.22

Ask | Same again, this time with CC(C)C[C@H](NC(=O)COc1ccc2c(c1)Nc1ccccc1S2)C(=O)N[C@@H](CC(C)C)C(=O)N[C@H]1CCOC1O (stereo in doubt; 6d-08)
Reply | 2.24

Ask | Also, CC(C)C[C@H](NC(=O)[C@@H](NC(=O)COc1ccc2c(c1)Nc1ccccc1S2)[C@H](C)O)C(=O)N[C@H]1CCOC1O (some centres not stated) please.
Reply | 1.28

Ask | Please do the same for CC[C@H](NC(=O)COc1ccc2c(c1)Nc1ccccc1S2)C(=O)N[C@@H](CC(C)C)C(=O)N[C@H]1CCOC1O (some centres not stated) as well.
Reply | 2.05
